tested on: MET; test: MET biochemical kinase assay; set-up: species or system human; concentration or dose not given beside the values
Met Kinase % Inhibition listing for selected compounds.
Quick note: unit goes after the number.

Worked set:
>>> df
                                   compound  result
0  COc1ccc(C=C2C(=O)Nc3ccc(Br)c(C)c32)c(OC)c1 [10719/C04]   14.7%
1  Cc1ccsc1C=C1C(=O)Nc2ccc(I)cc21 [10729/B05]   51.0%
2  CNS(=O)(=O)c1ccc2c(c1)C(=Cc1ccc(O)c(O)c1O)C(=O)N2 [10723/D02]   93.0%
3  COc1c(C)cc(C=C2C(=O)Nc3ccc(S(=O)(=O)Nc4ccc(C(F)(F)F)cc4)cc32)cc1C [10733/E06]   10.4%
4  COc1ccc2[nH]cc(C=C3C(=O)Nc4c(Br)cc(Br)cc43)c2c1 [10731/A09]   46.7%

[Q] Indicate its recorded Met Kinase % Inhibition; the compound in question is O=C1Nc2ccc(S(=O)(=O)Nc3ccc(C(F)(F)F)cc3)cc2C1=Cc1ccc(F)cc1 [10717/E05]
[A] 39.1%

[Q] Look up and report measured Met Kinase % Inhibition for this entry: COc1cc(OC)c(C=C2C(=O)Nc3ccc(I)cc32)c(OC)c1 [10719/B06]
[A] 22.5%

[Q] Give Met Kinase % Inhibition for the following compound: O=C1Nc2ccccc2C1=C1C(=O)Nc2ccc(CCCl)cc21 [10726/G09]
[A] 42.4%

[Q] Identify the reported Met Kinase % Inhibition for the following entry. O=C1Nc2ccc(S(=O)(=O)Nc3ccc(C(F)(F)F)cc3)cc2C1=Cc1cccc(Br)c1 [10723/E10]
[A] 59.5%

[Q] Kindly indicate its recorded Met Kinase % Inhibition. Item: O=C1Nc2c(Br)cc(Br)cc2C1=Cc1coc2ccc([N+](=O)[O-])cc2c1=O [10731/A07]
[A] 49.5%

====

In this section, each of the compounds is paired with its reported Met Kinase % Inhibition.
tested on: MET; experiment: MET biochemical kinase assay; set-up: species or system human; concentration or dose not given beside the values
Reply numerically in %, unit not repeated.

>>> df
                                item_smiles  result
0       Cc1cc(C=C2C(=O)Nc3ccc(I)cc32)[nH]n1    68.3
1     Cc1c(Br)ccc2c1C(=Cc1ccc(F)cc1)C(=O)N2    44.6
2  O=C1Nc2ccc(S(=O)(=O)N3CCOCC3)cc2C1=Cc1cccc(F)c1O    66.3
3   Cn1cc(Cl)c(C=C2C(=O)Nc3ccc(CCCl)cc32)n1    25.3
4  CNS(=O)(=O)c1ccc2c(c1)C(=Cc1cc(C(C)C)c(Oc3ccccc3)c(C(C)C)c1)C(=O)N2    40.7

[Q] Lab note: record Met Kinase % Inhibition of `CNS(=O)(=O)c1ccc2c(c1)C(=Cc1cc([N+](=O)[O-])cc(CCl)c1O)C(=O)N2` tested on MET.
[A] 9.0

[Q] For MET, give the measured Met Kinase % Inhibition of the entry `CNS(=O)(=O)c1ccc2c(c1)C(=Cc1ccc(F)cc1)C(=O)N2`
[A] 23.8

[Q] Report Met Kinase % Inhibition from MET testing of `COc1c([N+](=O)[O-])cc(C=C2C(=O)Nc3c(Br)cc(Br)cc32)cc1C(C)(C)C`
[A] 24.9

[Q] Provide Met Kinase % Inhibition, recorded with MET, of `Cc1cc2occ(C=C3C(=O)Nc4ccc(I)cc43)c(=O)c2cc1C`
[A] 60.9

====

biological target: FLK-1 receptor (Mus musculus, UniProt P35918); construct: expressed in transfected cells; host or cells: NIH3T3 C7#3; experiment: FLK-1 ELISA (kinase activity of the FLK-1 receptor in FLK-1/NIH3T3 cells, VEGF stimulated); format: cell-based
Sequence (P35918 20-1345): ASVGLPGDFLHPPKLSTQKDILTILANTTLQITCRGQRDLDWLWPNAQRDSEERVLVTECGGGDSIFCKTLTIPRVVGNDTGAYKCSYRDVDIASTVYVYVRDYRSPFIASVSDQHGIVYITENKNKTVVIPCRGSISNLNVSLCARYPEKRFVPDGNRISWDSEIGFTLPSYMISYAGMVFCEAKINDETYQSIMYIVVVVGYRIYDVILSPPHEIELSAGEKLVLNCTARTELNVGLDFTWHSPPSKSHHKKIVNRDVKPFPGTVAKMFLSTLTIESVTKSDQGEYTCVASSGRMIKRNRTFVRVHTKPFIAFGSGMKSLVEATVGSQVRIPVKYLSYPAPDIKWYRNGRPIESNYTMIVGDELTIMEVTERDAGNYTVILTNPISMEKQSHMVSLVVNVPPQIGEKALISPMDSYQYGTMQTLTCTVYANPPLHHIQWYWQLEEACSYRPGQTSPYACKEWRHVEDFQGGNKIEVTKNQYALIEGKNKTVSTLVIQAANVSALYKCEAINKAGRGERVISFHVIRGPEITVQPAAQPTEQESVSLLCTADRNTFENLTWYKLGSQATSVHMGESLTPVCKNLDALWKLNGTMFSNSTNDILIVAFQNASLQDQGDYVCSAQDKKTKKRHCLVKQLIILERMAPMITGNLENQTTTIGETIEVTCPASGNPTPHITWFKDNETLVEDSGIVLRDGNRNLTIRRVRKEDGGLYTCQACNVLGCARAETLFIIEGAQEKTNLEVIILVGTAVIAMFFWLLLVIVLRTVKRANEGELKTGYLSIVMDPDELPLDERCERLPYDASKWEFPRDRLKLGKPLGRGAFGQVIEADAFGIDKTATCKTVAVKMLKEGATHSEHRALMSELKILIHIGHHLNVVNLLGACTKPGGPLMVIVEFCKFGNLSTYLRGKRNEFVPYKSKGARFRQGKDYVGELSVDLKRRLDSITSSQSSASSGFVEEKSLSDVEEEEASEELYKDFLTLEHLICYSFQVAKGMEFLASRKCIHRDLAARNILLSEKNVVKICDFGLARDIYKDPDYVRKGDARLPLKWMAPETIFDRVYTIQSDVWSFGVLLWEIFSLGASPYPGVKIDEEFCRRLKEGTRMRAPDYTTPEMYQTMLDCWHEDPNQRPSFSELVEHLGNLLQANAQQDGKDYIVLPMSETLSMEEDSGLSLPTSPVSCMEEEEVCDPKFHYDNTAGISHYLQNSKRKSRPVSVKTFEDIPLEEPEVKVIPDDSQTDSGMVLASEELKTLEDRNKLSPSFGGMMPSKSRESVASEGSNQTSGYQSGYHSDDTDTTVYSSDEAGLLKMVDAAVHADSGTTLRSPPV
Values of Fik Kinase %Inhibition greater than or equal to 10% map to Y; values below map to N.

>>> print(df.to_string())
                                   molecule  assigned_class
0  CC(C)(C)c1cc(C=C2C(=O)Nc3ccc(CCCl)cc32)cc(Cl)c1OCc1ccccc1               Y
1  COC1CC(C=C2C(=O)Nc3ccc(S(=O)(=O)N4CCOCC4)cc32)C(OC)O1 (stereo not shown)               Y
2  CCOC(=O)c1[nH]c(C=C2C(=O)Nc3ccc(S(=O)(=O)NC)cc32)c(C(=O)OC)c1C               Y

[Q] // inclusive: Fik Kinase %Inhibition at least 10%? input: `O=C1Nc2ccc(I)cc2C1=Cc1ccc(Br)cc1`
[A] N

[Q] Identify whether the reported Fik Kinase %Inhibition of the following molecule is 10% or greater: `COc1ccc(C=C2C(=O)Nc3ccc(I)cc32)cc1`
[A] N

[Q] Does Fik Kinase %Inhibition meet or surpass 10% for `COc1ccc(C=C2C(=O)Nc3c(Br)cc(Br)cc32)c(OC)c1` ?
[A] Y

[Q] Confirm if Fik Kinase %Inhibition reported for the molecule `CNS(=O)(=O)c1ccc2c(c1)C(=Cc1cc([N+](=O)[O-])cc(CCl)c1O)C(=O)N2` is 10% or above.
[A] N

[Q] Check if Fik Kinase %Inhibition >= 10% (inclusive). Item: `O=C1Nc2ccc(S(=O)(=O)Nc3ccc(C(F)(F)F)cc3)cc2C1=Cc1ccc(C(F)(F)F)cc1`
[A] Y

[Q] Could you verify whether the entry `Cc1c(Br)ccc2c1C(=Cc1cc3c4c(c1O)CCCN4CCC3)C(=O)N2` shows Fik Kinase %Inhibition of no less than 10%?
[A] N

[Q] Item `CNS(=O)(=O)c1ccc2c(c1)C(=Cc1c(C)[nH]c(C(=O)OC)c1C(=O)OC)C(=O)N2` with Fik Kinase %Inhibition of 10% or above?
[A] N

====

system: MET; assay: MET biochemical kinase assay; parameters: species or system human; concentration or dose not given beside the values
value kind: Met Kinase % Inhibition (%)
State the answer as a number, implicitly in %.

>>> print(df.to_string())
                                   compound  target_or_system  unit_of_measurement  result
0  CNS(=O)(=O)c1ccc2c(c1)C(=Cc1cc(Cl)c(OC)c(C(C)(C)C)c1)C(=O)N2               MET                    %    40.3
1  C=C(C)C1CC=C(C=C2C(=O)Nc3ccc(Br)c(C)c32)CC1 (centres unmarked)               MET                    %    32.5
2    COc1cc(C)cc(O)c1C=C1C(=O)Nc2ccc(I)cc21               MET                    %    53.3
3        Cc1c(Br)ccc2c1C(=Cc1ccncc1)C(=O)N2               MET                    %    60.4

[Q] Give MET Met Kinase % Inhibition for the following compound: `CC(C)(C)c1cc(C=C2C(=O)Nc3ccc(S(=O)(=O)Nc4ccc(C(F)(F)F)cc4)cc32)cc(Cl)c1OCc1ccccc1`
[A] 1.6

====

# Fik Kinase %Inhibition per record follows
target: FLK-1 receptor (Mus musculus, UniProt P35918); construct: expressed in transfected cells; host or cells: NIH3T3 C7#3; assay: FLK-1 ELISA (kinase activity of the FLK-1 receptor in FLK-1/NIH3T3 cells, VEGF stimulated); format: cell-based
Express the result in % but write the number alone.

// known answers, use as guide
>>> print(df.to_string())
                                item_smiles                          target_or_system              value_kind  result
0  CC(C)(C)c1cc(C=C2C(=O)Nc3ccc(S(=O)(=O)Nc4ccc(C(F)(F)F)cc4)cc32)cc(Br)c1OCc1ccccc1  FLK-1 receptor (Mus musculus, UniProt P35918)  Fik Kinase %Inhibition    13.6
1  CNS(=O)(=O)c1ccc2c(c1)C(=Cc1sccc1C)C(=O)N2  FLK-1 receptor (Mus musculus, UniProt P35918)  Fik Kinase %Inhibition     2.2
2  COC(=O)Cc1c(Cl)[nH]c(C=C2C(=O)Nc3ccc(S(=O)(=O)N4CCOCC4)cc32)c1C(=O)OC  FLK-1 receptor (Mus musculus, UniProt P35918)  Fik Kinase %Inhibition     6.8

Could you now look at the following molecule, please?
[Q] Identify measured Fik Kinase %Inhibition obtained with FLK-1 receptor (Mus musculus, UniProt P35918) for `O=C1Nc2c(Br)cc(Br)cc2C1=Cc1cc(Cl)cc(Cl)c1O` .
[A] 10.1
